Target: T1, cynomolgus antigen (cynomolgus)
T1 construct: also called cyno antigen; cynomolgus monkey C5a
Experiment: SPR, scFv captured via anti-c-myc/anti-His, 60 nM cynomolgus antigen as analyte, 1:1 fit
Method: The activator was prepared by mixing 400 mM EDC (1-ethyl-3-(3-dimethylaminopropyl) carbodiimide) and 100 mM NHS (N-hydroxysuccinimide) (GE) immediately prior to injection. The CMS sensor chip was activated for 600 s with the mixture at a flow rate of 10 μL/min. Mixture of anti-c-myc and anti his antibodies in 10 mM NaAc (pH 4.5) was then injected to Fc1 and Fc2 of channel 1 to channel 8 for 600 seconds at a flow rate of 10 μL/min. […]
MEASURED QUANTITY: koff (s⁻¹)
Express it in s⁻¹; write the number only.

8C1 (scFv, V domains shown, Combination mutant scFv) VH: QVQLVQSGAEVKKPGSSVKVSCKASGYTFTDHIIHWMRQAPGQGLEWMGYIYPREGWTNYNENFKGRVTITADKSTSTAYMELSSLRSEDTAVYYCARERNLEYFDYWGQGTTVTVSS VL: DIVLTQSPASLAVSPGQRATITCKASQSVDFEGFNYMNWYQQKPGQPPKLLIYAASNLDSGVPARFSGSGSGTDFTLTINPVEAEDTANYYCQQSLEDPHTFGGGTKVEIK: 0.000481

Please examine the following record next.
# input Name the reported koff value associated with the binder 11A11 (scFv, V domains shown, Combination mutant scFv) VH: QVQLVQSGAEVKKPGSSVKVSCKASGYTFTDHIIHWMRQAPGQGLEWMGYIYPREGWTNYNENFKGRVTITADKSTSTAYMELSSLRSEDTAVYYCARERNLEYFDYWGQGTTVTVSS VL: DIVLTQSPASLAVSPGQRATITCKASQSVDFEGFNYMNWYQQKPGQPPKLLIYATSNLDSGVPARFSGSGSGTDFTLTINPVEAEDTANYYCQQSVEDPHTFGGGTKVEIK
# output 0.000786
